# System: Human neural stem cells (hNSCs)
# PROCEDURE_SUMMARY: Neuronal differentiation of human neural stem cells (TUJ-1 staining)
# Format: cell-based
# MEASUREMENT_CONTEXT: Homo sapiens, Neural stem cell, read-out: EC50 for neuronal differentiation, agent alone
Counter-ions that a name gives are not always drawn.
Field: EC50. Provide a value for each of the compounds that follow.
The figure you give is taken to be in µM; do not add the unit.

Suppose we examine the compound NCC(CC(=O)O)c1ccc(Cl)cc1 (stereo not drawn) ; what EC50 value has been reported?
3.6

Suppose we examine the compound `O=C1CC2(CCCC2)CC(=O)N1CCCCN1CCN(c2ncccn2)CC1` ; what EC50 value has been reported?
8.4

Suppose we examine the compound COC(=O)C(c1ccccc1)C1CCCCN1 (stereo not drawn) [Ritalin, Methylphenidate hydrochloride] ; what EC50 value has been reported?
3.5
